Taken from paper PMC12021911.

// reported MIC for each item listed
# System: K. pneumoniae 17349
# measurement-description: microbe, parasite or virus in culture
# Format: cell-based, Klebsiella pneumoniae
# condition-info: Klebsiella pneumoniae, 17349
property-label: MIC

INSERT INTO results (compound, study_system, measured_value) VALUES
  ('C[C@@H](O)[C@H]1C(=O)N2C(C(=O)O)=C(S[C@@H]3CN[C@H](C(=O)N(C)C)C3)[C@H](C)[C@H]12 [Meropenem]', 'K. pneumoniae 17349', '< 0.125 µg/mL'),
  ('O=C(O)c1cn(C2CC2)c2cc(N3CCNCC3)c(F)cc2c1=O [Ciprofloxacin]', 'K. pneumoniae 17349', '< 0.0312 µg/mL'),
  ('C[C@@H](O)[C@H]1C(=O)N2C(C(=O)O)=C(SCCN=CN)C[C@H]12 [Imipenem]', 'K. pneumoniae 17349', '< 0.125 µg/mL'),
  ('C[C@H]1COc2c(N3CCN(C)CC3)c(F)cc3c(=O)c(C(=O)O)cn1c23 [Levofloxacin]', 'K. pneumoniae 17349', '< 0.0625 µg/mL');
